Target: HPK1 (Homo sapiens, UniProt Q92918)
Sequence (Q92918 whole entry, species assumed): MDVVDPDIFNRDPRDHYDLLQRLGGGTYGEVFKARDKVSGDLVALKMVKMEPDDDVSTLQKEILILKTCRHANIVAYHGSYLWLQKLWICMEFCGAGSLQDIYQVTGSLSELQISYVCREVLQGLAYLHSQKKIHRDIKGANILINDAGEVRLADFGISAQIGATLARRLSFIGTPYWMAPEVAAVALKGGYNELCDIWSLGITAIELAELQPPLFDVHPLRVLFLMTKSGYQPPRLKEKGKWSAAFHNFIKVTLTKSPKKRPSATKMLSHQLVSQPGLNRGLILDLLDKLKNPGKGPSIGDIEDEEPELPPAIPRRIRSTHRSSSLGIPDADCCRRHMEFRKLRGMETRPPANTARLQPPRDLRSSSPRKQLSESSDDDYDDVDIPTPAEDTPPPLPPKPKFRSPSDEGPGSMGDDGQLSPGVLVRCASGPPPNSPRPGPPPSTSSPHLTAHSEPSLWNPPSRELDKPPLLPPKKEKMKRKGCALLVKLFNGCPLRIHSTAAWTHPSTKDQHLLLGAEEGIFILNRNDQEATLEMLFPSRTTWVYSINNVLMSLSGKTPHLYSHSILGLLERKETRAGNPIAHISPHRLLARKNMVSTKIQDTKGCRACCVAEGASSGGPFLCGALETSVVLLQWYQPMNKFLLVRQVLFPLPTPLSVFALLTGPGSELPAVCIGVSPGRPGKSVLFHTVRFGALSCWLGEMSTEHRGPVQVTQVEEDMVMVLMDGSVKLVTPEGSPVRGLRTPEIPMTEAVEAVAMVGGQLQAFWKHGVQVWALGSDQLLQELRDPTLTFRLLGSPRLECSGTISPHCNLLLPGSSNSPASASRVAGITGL
Assay: HPK1 HTRF kinase assay
Assay type: biochemical
Conditions: 1000 µM ATP; 50 nM HPK1; STK1 substrate; read-out: HPK1, IC50
ATTRIBUTE_MEASURED: IC50 (nM)

CC1(C)c2cc(N3CCOCC3)ccc2Nc2c1cc(-c1cnn3cccnc13)c1c2C(=O)NC1 [Example 16] ... 2.85
CC1(C)c2cc(-c3cnn4cccnc34)c3c(c2Nc2cccc(OC4CCNC4)c21)C(=O)NC3 (centres unmarked) [Example 58] ... 4150
CC1(C)c2cc(N3CCOCC3)ccc2Nc2c1cc(-n1cnc3c1CCCC3)c1c2C(=O)NC1 [Example 80] ... 9.18
CC1CCn2c(-c3cc4c(c5c3CNC5=O)Nc3ccc(N5CCOCC5)cc3C4(C)C)cnc2C1 (centres unmarked) [Example 65] ... 8.59

A = CC1(C)c2cc(N3CCOCC3)ccc2Nc2c1cc(-c1nnc3n1CCCC3)c1c2C(=O)NC1 [Example 71]
B = CC1(C)c2cc(N3CCOCC3)ccc2Nc2c1cc(-c1nnc3c(C#N)cccn13)c1c2C(=O)NC1 [Example 39]
Q: Of A versus B , which is the one with smaller reported IC50? Lab note: record the label of whichever item you select.
A: A

----------
Target: HPK1 (Homo sapiens, UniProt Q92918)
Test: HPK1 HTRF kinase assay
Type: biochemical
Settings: HPK1, IC50 (nM), 1000 µM ATP; 50 nM HPK1; STK1 substrate
ATTRIBUTE_MEASURED: IC50 (nM)
Write the value in nM as a bare number.

# example entries with known answers
Cc1ccn2c(-c3cc4c(c5c3CNC5=O)Nc3ccc(N5CCOC(C(C)(C)O)C5)cc3C4(C)C)cnc2c1F (single isomer, unassigned) [Example 89] ... 8.13
Cc1ccn2c(-c3cc4c(c5c3CNC5=O)Nc3ccc(N5CCOC(C(C)(C)O)C5)cc3C4(C)C)cnc2c1F (single isomer, unassigned) [Example 88] ... 11.6

Consider now this further molecule.
So, COC1CCCn2c(-c3cc4c(c5c3CNC5=O)Nc3ccc(N5CCOCC5)cc3C4(C)C)cnc21 (single isomer, unassigned) [Example 91] ? Its IC50 was 4.24

----------
Test system: Phospho-SLP-76 (Ser376)
Assay: Phospho-SLP-76 (Ser376) HTRF assay in Jurkat E6-1 cells
Type: cell-based
Conditions: Homo sapiens, compound 4 hours, then anti-CD3 antibody 20 minutes, read-out: pSLP76, IC50
pIC50: −log10 of the molar value.
ATTRIBUTE_MEASURED: pIC50

Cc1ccn2c(-c3cc4c(c5c(=O)[nH]ccc35)Nc3ccc(N5CCOC(C(C)(C)O)C5)cc3C4(C)C)cnc2c1F (stereo not drawn) ... 6.79

P = CC1(C)c2cc(N3CCOCC3)ccc2Nc2c1cc(-c1cnn3cccnc13)c1cc[nH]c(=O)c21
Q = COc1cccn2c(-c3cc4c(c5c3CNC5=O)Nc3cnc(N5CCOCC5)cc3C4(C)C)cnc12
R = COc1cccn2c(-c3cc4c(c5c3CNC5=O)Nc3ccc(N5CCOCC5)nc3C4(C)C)cnc12
S = Cn1ccn2c(-c3cc4c(c5c3CNC5=O)Nc3ccc(N5CCOCC5)cc3C4(C)C)cnc2c1=O
Q: In this exercise, place the 4 molecules in ascending sequence of their recorded pIC50. Reply format: the labels, ordered as requested.
A: Q, R, P, S

----------
System: human Pan T cells
Test: Human Pan T cell IL-2 ELISA
Type: cell-based
Details: Homo sapiens, T-cell, 48 h, Anti-CD3 and Anti-CD28, supernatant IL-2 ELISA, read-out: IL-2 release, EC50
Experimental: A compound was dissolved in DMSO to 10 mM, and then diluted three-fold with DMSO to 9 dosages in a 96-well plate. […] The assay was conducted in a 96-well plate. […] On the second day of the assay, human Pan T cells were recovered, centrifuged and counted. […] The signal value of light absorption was converted into a multiple. […] The average value of control wells refers to the value measured in wells with DMSO added. EC50 values were calculated by XLFit (version 5.3.1.3) in Excel. […]
pEC50: −log10 of the molar value.
ATTRIBUTE_MEASURED: pEC50

CC1(C)c2cc(N3CCOC(CO)C3)ccc2Nc2c1cc(-c1cnc3cc(F)ccn13)c1c2C(=O)NC1 (stereo not drawn) [Example 108] ... 8.25

1 = Cn1c(-c2cc3c(c4c2CNC4=O)Nc2ccc(N4CCOC(C(C)(C)O)C4)cc2C3(C)C)cnc1C1CCNC1 (single isomer, unassigned) [Example 143]
2 = CC1(C)c2cc(N3CCOC(C(C)(C)O)C3)ccc2Nc2c1cc(-c1cnc3cc(F)ccn13)c1c2C(=O)NC1 (single isomer, unassigned) [Example 93]
Q: Hi, I'm comparing 1 with 2 and wondering which one has the bigger number for pEC50. Any idea? Respond using the label that marks the chosen record.
A: 2

A = Cc1ccn2c(-c3cc4c(c5c3CNC5=O)Nc3ccc(N5CCC(O)CC5)cc3C4(C)C)cnc2c1F [Example 40]
B = CC1(C)c2cc(N3CCOCC3)ccc2Nc2c1cc(-c1cnc3n1CCC(O)C3)c1c2C(=O)NC1 (single isomer, unassigned) [Example 241]
Q: Between item A and item B , which reported pEC50 is smaller? Kindly state the label of the option you pick.
A: B

a = COc1cncc2c(-c3cc4c(c5c3CNC5=O)Nc3ccc(N5CCOCC5)cc3C4(C)C)cnn12 [Example 76]
b = COc1cccc2c(-c3cc4c(c5c(=O)[nH]ccc35)Nc3ccc(N5CCOCC5)cc3C4(C)C)cnn12 [Example 8]
c = COC1CCn2c(-c3cc4c(c5c3CNC5=O)Nc3ccc(N5CCOCC5)cc3C4(C)C)cnc21 (single isomer, unassigned) [Example 229]
Q: Put the items in sequence by pEC50, from largest down. API: response body holds the labels in the requested order.
A: b, c, a
(b: 8.26, c: 7.85, a: 7.30)

----------
Tested on: human Pan T cells
Experiment: Human Pan T cell IL-2 ELISA
Format: cell-based
Conditions: Homo sapiens, T-cell, 48 h, Anti-CD3 and Anti-CD28, supernatant IL-2 ELISA, read-out: IL-2 release, EC50
ATTRIBUTE_MEASURED: EC50 (nM)

Would you please look over these solved cases?
CC1(C)c2cc(N3CCOCC3)ccc2Nc2c1cc(-c1cnc3nc(N4CC(O)C4)ccn13)c1c2C(=O)NC1 [Example 253] ... 54
CC1(C)c2cc(N3CCOCC3)ccc2Nc2c1cc(-c1cnc3c(OC(F)F)nccn13)c1c2C(=O)NC1 [Example 172] ... 8.1
CC1(C)c2cc(N3CCOCC3)ccc2Nc2c1cc(-c1cnn3cnccc13)c1c2C(=O)NC1 [Example 53] ... 5.54
CC1(C)c2cc(N3CCOC(C(C)(C)O)C3)ccc2Nc2c1cc(-c1cnc3cc(C#N)ccn13)c1c2C(=O)NC1 (single isomer, unassigned) [Example 133] ... 22.1
CC1(C)c2cc(N3CCOCC3)ccc2Nc2c1cc(-c1cnc3cccnn13)c1c2C(=O)NC1 [Example 12] ... 6.67

a = COCC1(O)CCN(c2ccc3c(c2)C(C)(C)c2cc(-c4cnn5cccnc45)c4c(c2N3)C(=O)NC4)CC1 [Example 49]
b = CC1(C)c2cc(N3CCOC(C(C)(C)O)C3)ccc2Nc2c1cc(-c1cnc3cc(C#N)ccn13)c1c2C(=O)NC1 (stereo not shown) [Example 101]
Q: // pick larger EC50 from pair: a vs b // caller expects the label of the chosen entry
A: a

----------
Tested on: human Pan T cells
Assay: Human Pan T cell IL-2 ELISA
Assay type: cell-based
Settings: Homo sapiens, T-cell, 48 h, Anti-CD3 and Anti-CD28, supernatant IL-2 ELISA, read-out: IL-2 release, EC50
pEC50: −log10 of the molar value.
ATTRIBUTE_MEASURED: pEC50

Sample answers from the record:
COc1nccn2c(-c3cc4c(c5c3CNC5=O)Nc3ccc(N5CCOC(C(C)(C)O)C5)cc3C4(C)C)cnc12 (stereo not shown) ... 7.96
CC1(C)c2cc(N3CCOCC3)ccc2Nc2c1cc(-c1cnc3c(F)c(C(F)F)ccn13)c1c2C(=O)NC1 ... 8.02

A = CC1(C)c2cc(N3CCOCC3)ccc2Nc2c1cc(-c1cnc3n1CCC(C#N)C3)c1c2C(=O)NC1 (single isomer, unassigned)
B = COC1CCCn2c(-c3cc4c(c5c3CNC5=O)Nc3ccc(N5CCOCC5)cc3C4(C)C)nnc21 (racemic)
Q: Quick check, higher pEC50 between A and B ? Give the chosen item's label as your response.
A: A

----------
Test system: Phospho-SLP-76 (Ser376)
Assay: Phospho-SLP-76 (Ser376) HTRF assay in Jurkat E6-1 cells
Type: cell-based
Details: Homo sapiens, compound 4 hours, then anti-CD3 antibody 20 minutes, read-out: pSLP76, IC50
Experimental: A compound was dissolved in DMSO to 10 mM, and then diluted three-fold with DMSO to 10 dosages in a 96-well plate. […] 30 µL of Jurkat E6-1 (300,000 cells) was added to a 96-well plate and incubated in a 37 °C incubator for 1 hour. […] After being placed at room temperature overnight, the plate was read by EnVision multi-function microplate reader to read the FRET signal (the ratio of HTRF 665/615 was calculated from the readings at 665 nm and 615 nm). […]
ATTRIBUTE_MEASURED: IC50 (nM)

COc1cccn2c(-c3cc4c(c5c(=O)[nH]ccc35)Nc3ccc(N5CCOCC5)cc3C4(C)C)cnc12 ... 57.5
CC1(C)c2cc(N3CCOCC3)ccc2Nc2c1cc(-c1cnc3c(Cl)cccn13)c1cc[nH]c(=O)c21 ... 121
CC1(C)c2cc(N3CCOCC3)ccc2Nc2c1cc(-c1cnn3cccnc13)c1c2C(=O)NC1 ... 31.6
Cc1ccn2c(-c3cc4c(c5c3CNC5=O)Nc3ccc(N5CCOCC5)cc3C4(C)C)cnc2c1F ... 73.3
Cc1ccn2c(-c3cc4c(c5c3CNC5=O)Nc3ccc(N5CCOC(C(C)(C)O)C5)cc3C4(C)C)cnc2c1F (stereo not drawn) ... 57.8
COc1ccnn2c(-c3cc4c(c5c3CNC5=O)Nc3ccc(N5CCOCC5)cc3C4(C)C)cnc12 ... 58.8
COc1cccn2c(-c3cc4c(c5c3CNC5=O)Nc3ccc(N5CCOCC5)cc3C4(C)C)cnc12 ... 42.7
COc1cccn2c(-c3cc4c(c5c3CCNC5=O)Nc3ccc(N5CCOCC5)cc3C4(C)C)cnc12 ... 24.4
COc1cccn2c(-c3cc4c(c5c(=O)[nH]ccc35)Nc3ccc(N5CCOC(C(C)(C)O)C5)cc3C4(C)C)cnc12 (stereo not drawn) ... 64
CC1(C)c2cc(N3CCOCC3)ccc2Nc2c1cc(-c1cnn3c(C#N)cccc13)c1c2C(=O)NC1 ... 56.9

A = COc1cccc2c(-c3cc4c(c5c(=O)[nH]ccc35)Nc3ccc(N5CCOCC5)cc3C4(C)C)cnn12
B = COc1cccc2c(-c3cc4c(c5c3CNC5=O)Nc3ccc(N5CCOCC5)cc3C4(C)C)cnn12
C = COc1cccc2c(-c3cc4c(c5c3CNC5=O)Nc3ncc(N5CCOCC5)cc3C4(C)C)cnn12
D = Cc1ccc2c(-c3cc4c(c5c(=O)[nH]ccc35)Nc3ccc(N5CCOC(C(C)(C)O)C5)cc3C4(C)C)cnn2c1 (stereo not drawn)
E = CC1(C)c2cc(N3CCOCC3)ccc2Nc2c1cc(-c1cnc3cccnn13)c1c2C(=O)NC1
Q: Rank ascending by IC50. List the labels in the requested order.
A: E, C, B, A, D
